# measured target: human orexin-1 receptor (hOX1R) (Homo sapiens)
# Sequence (O43613 whole entry): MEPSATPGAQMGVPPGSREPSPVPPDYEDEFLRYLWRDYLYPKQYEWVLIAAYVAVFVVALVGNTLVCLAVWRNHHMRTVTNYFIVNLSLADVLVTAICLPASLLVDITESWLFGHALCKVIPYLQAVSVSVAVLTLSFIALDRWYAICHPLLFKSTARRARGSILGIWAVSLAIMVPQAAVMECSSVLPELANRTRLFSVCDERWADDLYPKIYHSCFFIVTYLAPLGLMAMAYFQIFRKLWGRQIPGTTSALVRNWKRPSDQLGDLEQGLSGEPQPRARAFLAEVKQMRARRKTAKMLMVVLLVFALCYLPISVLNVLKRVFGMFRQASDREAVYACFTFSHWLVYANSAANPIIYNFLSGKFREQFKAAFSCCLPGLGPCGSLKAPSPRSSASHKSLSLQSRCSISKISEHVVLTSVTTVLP
# experiment notes: Measurement of orexin antagonistic activity (intracellular Ca2+ fluorescence, FDSS) on hOX1R
# experimental parameters: CHO cells forcibly expressing hOX1R; Fluo-4AM; ligand peptide (substituted human orexin-A) 300 pM; compound preincubated 30 minutes; read-out: IC50 Value OX1
# Method: The antagonistic activities of the test compounds on human orexin-1 receptor (hOX1R) and orexin-2 receptor (hOX2R) were measured by modifying from the method described in literature (Toshikatsu Okumura et al., Biochemical and Biophysical Research Communications, 280, 976-981, 2001). […]
experimental endpoint: IC50 (nM)

CCN(C(=O)c1cc(F)ccc1-c1ncccn1)[C@@H](C)Cn1ccc(-c2ccc(F)c(F)c2)n1 [Example 17] ... 2.1

1: CCN(C(=O)c1cc(C)ccc1-n1nccn1)[C@@H](C)Cn1cc(-c2ccc(Cl)cc2)nn1 [Example 92]
2: CCN(C(=O)c1cc(C)ccc1-c1ncccn1)[C@@H](C)Cc1noc(-c2ccc(F)cc2)n1 [Example 55]
3: CCN(C(=O)c1nc(C)ccc1-n1nccn1)[C@@H](C)Cn1nnc(-c2ccc(F)cn2)n1 [Example 86]
Query block: Endpoint returns the given compounds ordered by ascending IC50. The response must list the labels following the requested ordering.
Result block: 2, 1, 3

src = patent US20150166523A1
